B1: NP_116010.1 (parent)
chain: HSLRAVSTDPPHHDHHDEFCLMP

- Variants of: B1
- ASSAY METHOD TEXT: protein stability index of a GFP-peptide fusion (GPS, HEK-293T) (PSI 1-6); higher = more stable;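 further: lentivirally expressed fusion library, cells FACS-sorted into six equal-sized GFP/DsRed ratio bins, PSI computed from sequencing read fractions per bin weighted by bin number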
- EXPERIMENTAL SETUP: c terminus: native
Assign protein stability index to each entry below.
Give bare numbers.

| VARIANT SPEC | OBSERVED VALUE |
| --- | --- |
| D14Q | 2.45 |
| V6M | 2.51 |
| D14N | 2.11 |
| H16A | 2.9 |
| F19V | 2.41 |
| H1D | 3.42 |
| D17F | 2.21 |
| C20M | 3.14 |

Hi there! I need protein stability index for each item below, if you can.
1. P23V
2. E18A
3. D17S
4. H1Y
5. F19S

3.07
2.37
2.31
2.63
2.47

// data source = the supplement of paper PMC10567573
